What TGI was measured for each of the following?
- Tested on: SK-OV-3 ovarian
- experiment_notes: NCI tumour cell line growth inhibition, 48 h

Below are worked cases with known answers.
COc1ccc(-c2coc3cc(OC)cc(O)c3c2=O)cc1    > 100 µM
N#CC1=C(c2ccccc2)C(O)(c2ccccc2)NC1=O (stereo not given)    88.9 µM

Could I get TGI for every one of these entries?
1. CN(C)/C=N/c1nc2ncn(CCOC(=O)c3ccccc3)c2c(=O)[nH]1
2. COC(=O)C1CCC(=O)N1C(c1ccc2c(c1)OCO2)c1ccc2c(c1)OCO2 (stereo not given)

*A*
["> 100 µM", "> 100 µM"]

Could I get TGI for every one of these entries?
1. CC([O-])C(=O)[O-].NCC1CCC1CN.[Pt+4] (stereo not given)
2. Nc1c(C(=O)Nc2ccccc2)sc2nc3c(cc12)CCCC3
3. CC(C)Oc1ccc(C(=O)N[C@H](CNC(=O)CN(C)C)Cc2ccc(-c3cn4cccc([C@H](C)O)c4n3)cc2)cc1Cl
4. COc1ccc(-c2nnc(CCCCCCCCc3nnc(-c4ccc(OC)cc4)o3)o2)cc1
5. CC(=O)O[C@H]1[C@@H](N2CCN(C)CC2)C[C@H]2[C@@H]3CC=C4C[C@@H](N5CCCC5)CC[C@]4(C)[C@H]3CC[C@@]21C
6. CNC1C(OC2C(OC3C(O)C(O)C(O)C(O)C3O)OC(C)C2(O)CO)OC(CO)C(O)C1O (stereo not given) (tested in a mixture with another compound)

*A*
> 10 µM
37.5 µM
22.9 µM
> 100 µM
> 100 µM
> 100 µM
